Assay: in vivo
Conditions: male, Wistar, rat, im
measurement-kind: MRT (min)
Write the number in min without appending the unit.

Just so you know, measured MRT for CCN(C)C(=O)Oc1cccc([C@H](C)N(C)C)c1 came out at 43.4

====

Assay: in vivo
Conditions: male, Wistar, rat
measurement-kind: concentration at 15 min
Could you give the number and then its unit, please?

Entry under test: CCN(C)C(=O)Oc1cccc([C@H](C)N(C)C)c1 . Its concentration at 15 min was 4.92 ng/mL

====

Test: in vivo
Details: male, Wistar, rat
measurement-kind: Kp at 30 min
Answer with the value's number alone.

Reported Kp at 30 min of CCN(C)C(=O)Oc1cccc([C@H](C)N(C)C)c1 [Rivastigmine] : 1.7

====

Assay: in vivo
Settings: male, Wistar, rat
measurement-kind: Kp at 24 h

What the record says about CCN(C)C(=O)Oc1cccc([C@H](C)N(C)C)c1 : Kp at 24 h is 0

====

Assay: in vivo
Details: male, Wistar, rat
measurement-kind: concentration at 120 min
State the result as a value with its unit after it.

Looking up CCN(C)C(=O)Oc1cccc([C@H](C)N(C)C)c1 , I see its concentration at 120 min listed as 0.03 ng/mL

====

Experiment: in vivo
Conditions: male, Wistar, rat
measurement-kind: concentration at 0 min (ng/mL)
Write the value in ng/mL as a bare number.

Sure, the documented concentration at 0 min for CCN(C)C(=O)Oc1cccc([C@H](C)N(C)C)c1 is 0

====

Test: Plasma pharmacokinetics after single i.m. injection in rats (HPLC-UV)
Settings: male, Wistar, rat, in vivo, im
measurement-kind: Vd/F (L/kg)
Note: unit L/kg is implicit; provide only the numeric part.

Record summary for CCN(C)C(=O)Oc1cccc([C@H](C)N(C)C)c1 : reported Vd/F = 19.8

====

Test: in vivo
Conditions: male, Wistar, rat
measurement-kind: concentration at 240 min (ng/mL)
Give the quantity in ng/mL, number only.

// CCN(C)C(=O)Oc1cccc([C@H](C)N(C)C)c1 : concentration at 240 min value = 0

====

Experiment: in vivo
Details: male, Wistar, rat
measurement-kind: concentration at 60 min (ng/mL)
Please reply with the bare figure in ng/mL and do not write the unit itself.

The recorded concentration at 60 min for CCN(C)C(=O)Oc1cccc([C@H](C)N(C)C)c1 [Rivastigmine] is 2.24

====

Assay: in vivo
Details: male, Wistar, rat
measurement-kind: concentration at 24 h (ng/mL)
Express the result in ng/mL but write the number alone.

# compound CCN(C)C(=O)Oc1cccc([C@H](C)N(C)C)c1 [Rivastigmine] ; its concentration at 24 h = 0

====

Assay: in vivo
Conditions: male, Wistar, rat
measurement-kind: Kp at 0 min
Give your answer as a number; write no unit.

Input CCN(C)C(=O)Oc1cccc([C@H](C)N(C)C)c1 . Output Kp at 0 min: 0

====

Experiment: in vivo
Conditions: male, Wistar, rat
measurement-kind: Kp at 5 min

The recorded Kp at 5 min for CCN(C)C(=O)Oc1cccc([C@H](C)N(C)C)c1 is 1.74

====

Test: in vivo
Settings: male, Wistar, rat
measurement-kind: Kp at 240 min
Give only the figure.

Form: compound = CCN(C)C(=O)Oc1cccc([C@H](C)N(C)C)c1 ; Kp at 240 min = 0

====

Assay: in vivo
Conditions: male, Wistar, rat
measurement-kind: Kp at 45 min

The reported value for CCN(C)C(=O)Oc1cccc([C@H](C)N(C)C)c1 in terms of Kp at 45 min is 1.15
